# ASSAY SUMMARY: solvent given as SMILES
# DETAILS: in Cc1ccccc1
VALUE KIND: emission maximum (nm)
One number for each entry, in nm.

# MOLECULE, VALUE UNIT, NUMERIC READOUT
records = [
    ("CCn1c2ccccc2c2cc(C#Cc3cc(C#Cc4ccc5c(c4)c4ccccc4n5CC)nc(SC)n3)ccc21", "nm", 416),
    ("COc1ccc2c(c1)c1c(c3cc(OC)ccc32)=[N+]2C(=C(c3c(C)cc(C)cc3C)c3cc4c5cc(OC)ccc5c5ccc(OC)cc5c4n3[B-]2(F)F)C=1", "nm", 717),
    ("Cc1cc(C)c(B(c2ccc(-c3ccc(-c4nc5c6ccccc6c6ccccc6c5[nH]4)cc3)cc2)c2c(C)cc(C)cc2C)c(C)c1", "nm", 435),
    ("CSc1cc(-c2cc3cc4c5c(c3oc2=O)CCCN5CCC4)oc(=O)c1C#N", "nm", 553),
    ("c1ccc(-c2ccc(-c3nc(-n4c5ccccc5c5ccc6c7ccccc7n(-c7ccccc7)c6c54)nc(-n4c5ccccc5c5ccc6c7ccccc7n(-c7ccccc7)c6c54)n3)cc2)cc1", "nm", 495),
    ("COc1ccc2c(c1)c1cc(OC)ccc1n2-c1ccc2c(c1)-c1cc(-n3c4ccc(OC)cc4c4cc(OC)ccc43)ccc1P2(=O)c1ccccc1", "nm", 476),
    ("CC(C)(C)c1ccc2c(c1)c1cc(C(C)(C)C)ccc1n2-c1ccccc1-c1nc(-c2ccccc2P(=O)(c2ccccc2)c2ccccc2)nc(-c2ccccc2P(=O)(c2ccccc2)c2ccccc2)n1", "nm", 498.41),
    ("c1ccc(-c2nc(-c3ccccc3)nc(-c3ccc(N4c5ccccc5CCc5ccccc54)cc3)n2)cc1", "nm", 422.22),
    ("Cc1ccc2oc(-c3cc4cc(C)ccc4oc3=O)cc2c1", "nm", 436),
    ("O=c1oc2ccc(Cl)cc2cc1-c1cc2cc(Cl)ccc2o1", "nm", 433),
]

Return reported emission maximum values for all items listed beneath this line.
1. COc1ccc(C2=[N+]3C(=Nc4c5c6ccccc6c6ccc(C(C)(C)C)cc6c5c(-c5ccc(OC)cc5)n4[B-]3(F)F)c3c2c2cc(C(C)(C)C)ccc2c2ccccc32)cc1
2. CN(C)c1ccc(C2=Nc3sc4cc(Cl)ccc4[n+]3[B-](F)(F)O2)cc1

741
456

Return reported emission maximum values for all items listed beneath this line.
1. N#CC(C#N)=Cc1ccc2c(c1)c1ccccc1n2-c1cc2ccccc2c2ccccc12
2. Cc1cc(C)c(B(c2c(C)cc(C)cc2C)c2c(C)cc(N3c4ccccc4Oc4ccccc43)cc2C)c(C)c1

445
509

Return reported emission maximum values for all items listed beneath this line.
1. O=S1(=O)C2=C(c3ccc(-c4ccc(N(c5ccccc5)c5ccccc5)cc4)cc31)C1(C3=C(c4ccccc41)S(=O)(=O)c1cc(-c4ccc(N(c5ccccc5)c5ccccc5)cc4)ccc13)c1ccccc12
2. CC1(C)c2ccccc2N(c2ccc(-c3ncc(C#N)cn3)cc2)c2ccccc21
3. CCCCCCCCCCC(CCCCCCCCCC)Cn1c2cc(-c3ccc(C(C)(C)C)cc3)c3cccc4c5ccc6c7cc(-c8cc(C(C)(C)C)cc(C(C)(C)C)c8)n8c7c(c7cc1c(c5c76)c2c34)=C1C=CC(c2cc(C(C)(C)C)cc(C(C)(C)C)c2)=[N+]1[B-]8(F)F
4. CCCCCn1c2cc(/C=C/c3ccc(N(c4ccccc4)c4ccccc4)cc3)ccc2c2ccc(/C=C/c3ccc(N(c4ccccc4)c4ccccc4)cc3)cc21
5. O=S(=O)(c1ccccc1)c1ccc(-c2ccc3c(c2)c2cc(-c4ccc(S(=O)(=O)c5ccccc5)cc4)ccc2n3-c2ccccc2)cc1

[543, 543, 830, 451, 381]
